Test: Retention time of the compound in 50 to 100% ACN/Water/0.1%TFA by RP-HPLC analysis
Type: physicochemical
Conditions: buffer
MEASURE: Retention_time (min)

Examples from the recorded data:
{"MOLECULE_SMILES": "COc1ccc(C/C(=N\\Nc2nc(-c3ccc(Cl)c(Cl)c3)cs2)C(=O)O)cc1[N+](=O)[O-]", "UOM": "min", "Retention_time": 8.007}
{"MOLECULE_SMILES": "O=C(O)/C(Cc1ccc([N+](=O)[O-])cc1)=N/Nc1nc(-c2ccc(Cl)c(Cl)c2)cs1", "UOM": "min", "Retention_time": 8.16}

[1] O=C(O)/C(Cc1ccc(F)cc1)=N\Nc1nc(-c2ccc(Cl)c(Cl)c2)cs1
[2] O=C(O)/C(Cc1ccccc1[N+](=O)[O-])=N\Nc1nc(-c2ccc(Cl)c(Cl)c2)cs1
Response body: label of entry with the larger Retention_time; valid values 1 , 2 . Returns: label corresponding to the selected item.
2
(2: 13.69 min, 1: 7.92 min)
